The measured values listed here are drawn from paper PMC5540273.

system: EPHB6; settings: concentration: 1 μM, replicates: in singlicate; n = 1;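 further: KINOMEscan kinase panel screen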
RECORDED METRIC: %Inh (%)

>>> df
                                   compound  recorded_metric  readout_number
0  Nc1nc(-c2ccccc2F)c(-c2ccnc3ccccc23)s1 [GW560459]             %Inh               0
1  O=C(Nc1n[nH]c2nc(-c3ccccc3)c(Cl)cc12)C1CC1 [SB-734909]             %Inh              48
2    Nc1ncnc2c1ncn2-c1cccc(F)c1 [SKF-97560]             %Inh              25
3  COc1cc2ncn(-c3cc(OCc4ccc(S(C)(=O)=O)cc4)c(C(N)=O)s3)c2cc1OC [GW869979]             %Inh              38
4  COC(=O)c1c(-c2ccccc2)c2cc(C)ccc2c(=O)n1Cc1ccccc1             %Inh               0
5  OCCCNc1nccc(-c2c(-c3cccc(C(F)(F)F)c3)nn3cc(C(F)(F)F)ccc23)n1 [GW630813]             %Inh               0
6  CN1C(=O)C(Nc2ccccc2)=C(c2ccccc2)C1=O [SB-300079]             %Inh               0
7  CCC(=O)c1c(-c2ccccc2)c2cc(Cl)ccc2c(=O)n1Cc1ccc(C(=O)O)cc1             %Inh               0
8  Cc1c(Cn2c(C)nn3c(=O)cc(N4CCO[C@H](C)C4)nc23)cccc1C(F)(F)F [GSK2373690]             %Inh               0
